# experimentSummary: Cmax in BALB/c mouse at 20 mg/kg, po and measured after 24 hrs by LC-MS/MS analysis
# Assay type: ADME, organism-based
# conditionSet: in vivo
measurementKind: Cmax

INSERT INTO measurements (substancesmiles, assayvalue) VALUES
  ('O=C1Nc2ccccc2/C1=C1/Nc2ccccc2/C1=N\OCCCC(=O)N1CCN(C(=O)c2ccc(Cc3n[nH]c(=O)c4ccccc34)cc2F)CC1', '6040 ng/mL');

----------
# experimentSummary: AUC(0 to infinity) in BALB/c mouse at 20 mg/kg, po and measured after 24 hrs by LC-MS/MS analysis
# Assay type: ADME, organism-based
# conditionSet: in vivo
measurementKind: AUC

INSERT INTO results (substancesmiles, assayvalue) VALUES
  ('O=C1Nc2ccccc2/C1=C1/Nc2ccccc2/C1=N\OCCCC(=O)N1CCN(C(=O)c2ccc(Cc3n[nH]c(=O)c4ccccc34)cc2F)CC1', '6450 ng·h/mL');
